Provenance of the data: PubChem BioAssay AID1445

Target: Aminopeptidase N (Plasmodium falciparum (isolate 3D7))
Test: malaria alanyl aminopeptidase activity blockers – biochemical, fluorogenic H-Leu-NHMec substrate, 1536-well (AID 1445);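 further: plate controls were DMSO full reaction for no effect and no enzyme background for full effect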
Conditions: recombinant M1AAP, H-Leu-NHMec fluorogenic kinetic assay; at 30 µM, hits give high values unless noted
Among all 220,000 compounds or so, about 910 (0.41%) were called active. Only a selection was taken, and actives are over-represented in it overall. Entries with a potency or affinity are not part of this list.
inhibition below 10% gives label 0; inhibition at or above it gives label 1.

Ask: Hi team, for CCc1ccc2[nH]c(=O)c(CN(Cc3ccccc3)Cc3nnnn3Cc3ccco3)cc2c1 , is the recorded inhibition at or above 10%?
Result: label 1

Ask: Hi team, for COc1cccc(NS(=O)(=O)c2ccc(OC)c(OC)c2)c1 , is the recorded inhibition at or above 10%?
Result: label 0

Ask: Hi team, for CCC(O)(CC)C(=O)N/N=C/c1cc(Br)cc(Br)c1O , is the recorded inhibition at or above 10%?
Result: label 1

Ask: Hi team, for CCCN(Cc1ccccc1)C(=S)Nc1ccc(C(C)=O)cc1 , is the recorded inhibition at or above 10%?
Result: label 0

Ask: Hi team, for CCOc1ccccc1-n1c(SCC(=O)N(C(C)C)C(C)C)nnc1-c1cccnc1 , is the recorded inhibition at or above 10%?
Result: label 0

Ask: Hi team, for O=c1[nH]c2cc3c(cc2cc1CN(Cc1cccnc1)Cc1nnnn1Cc1ccco1)OCCO3 , is the recorded inhibition at or above 10%?
Result: label 1
